Data credit: PubChem BioAssay (NCI)

Measured growth of individual entries
test system: SK-MEL-28 melanoma; assay: NCI-60 one-dose screen, 48 h (100 = growth as untreated, 0 = no growth, -100 = all killed); conditions: 10 µM unless noted
Compounds without any hit were thinned out: in the full panel of roughly 83,000, 20% have a hit.

given smiles | tgt | units label | growth
COc1ccc([C@H]2c3[nH]c4ccccc4c3C[C@H]3C(=O)N(C4CCN(Cc5c(Cl)cccc5Cl)CC4)CC(=O)N23)c(OC)c1 | SK-MEL-28 melanoma | % | 101
O=C(CCn1c[n+](CC(=O)c2ccc(-c3ccccc3)cc2)c2ccccc21)Nc1cccc2cccnc12 | SK-MEL-28 melanoma | % | 38.9
CCN1CCN(C(=O)[C@]23CCC(C)(C)C[C@H]2C2=CC[C@@H]4[C@@]5(C)Cc6c([nH]c7ccccc67)C(C)(C)[C@@H]5CC[C@@]4(C)[C@]2(C)CC3)CC1 | SK-MEL-28 melanoma | % | 95.5
Cc1ccc(CSc2nc(-c3ccc(Cl)cc3)c(C#N)c(N3CCOCC3)n2)cc1 | SK-MEL-28 melanoma | % | 93.8
COc1ccc2c(c1)c(CC(=O)[Se]CC#N)c(C)n2C(=O)c1ccc(Cl)cc1 | SK-MEL-28 melanoma | % | 37.6
CS(=O)(=O)Nc1cc(-c2ccc3ncc(C#N)c(N[C@H](CO)c4ccccc4)c3c2)cnc1Cl | SK-MEL-28 melanoma | % | 35.2

----------
tested on: EKVX NSCLC; experiment: NCI-60 one-dose screen, 48 h; details: 10 µM unless noted
Compounds without any hit were thinned out: in the full panel of roughly 83,000, 20% have a hit. Active and inactive are the calls of the source. Rule for the calls: active = growth percent below 10; inactive = the rest.
Outcomes: TRUE = active, FALSE = inactive

compound | cat
Cc1ccc(-c2cc3nc(C(Cl)Cl)nc(-c4ccco4)n3n2)cc1 | TRUE
COc1cc(-c2nc(-c3ccccc3)[nH]c2-c2ccnc(NCCCNS(=O)(=O)c3cccc(F)c3)n2)ccc1Cl | FALSE
O=S(=O)(Oc1ccc(-c2nnc(Nc3ccccc3)s2)cc1)C(F)(F)C(F)(F)C(F)(F)C(F)(F)C(F)(F)C(F)(F)F | FALSE
CCCC(=O)NC(c1cccnc1)c1cc(C(C)(C)C)c2cccnc2c1O (stereo not drawn) | FALSE
COc1cc(/C=C/C(=O)c2ccc(NC(=O)CSc3nnc(-c4ccc(-c5nc6ccc(Cl)cc6[nH]5)cc4)o3)cc2)cc(OC)c1OC | FALSE
CCCCCc1ccc(S(=O)(=O)Nc2cccc(-c3csc(NC(=O)CN4CCN(CCO)CC4)n3)c2)cc1 | FALSE
COc1cc2oc(-c3cccc(N)c3)cc(=O)c2c(OC)c1OC | FALSE
COc1ccc(-n2c(SCc3nnc(NC(=O)c4ccc(Br)cc4)s3)nc3cc(OC)c(OC)cc3c2=O)cc1 | FALSE

----------
tested on: CAKI-1 renal; assay: NCI-60 one-dose screen, 48 h (100 = growth as untreated, 0 = no growth, -100 = all killed); settings: 10 µM unless noted
This is part of a sample that, as a whole, favours compounds with a hit. Of some 83,000 tested, about 20% had one in any assay.
Classify by measured growth: Met if it is equal to or exceeds 70%, Not met if it is smaller.

compound | cat
CCCn1cnc2c(c1=N)C(c1ccc(F)cc1)c1sc3c(CC)cccc3c1O2 (centres undefined) | Not met
O=C(Nc1ccc2c(ccn2Cc2ccccn2)c1)c1ccnnc1 | Not met
CS(=O)(=O)c1ncc(-c2ccccc2)cn1 | Met
NC(N)=Nc1ccc(Oc2cccc(Nc3ccc(Cl)c(C(F)(F)F)c3)c2)cc1 | Not met
Cc1ccc(S(=O)(=O)NCCNc2nc(Nc3ccc(N4CCN(C)CC4)cc3)nc3ccsc23)cc1 | Met
COc1ccc(-n2c(SCc3nnc(NC(=O)c4ccc(Br)cc4)s3)nc3cc(OC)c(OC)cc3c2=O)cc1 | Met
CCc1nn2c(C)cc(C)nc2c1Cc1ccc(/C=C/CN2CCN(CCOCCOCCN3CCN(C/C=C/c4ccc(Cc5c(CC)nn6c(C)cc(C)nc56)cc4)CC3)CC2)cc1 | Not met
CNc1ncc2cc(-c3ccc(-c4ncccc4F)cc3Cl)c(=O)n(CC3OCC(N)CO3)c2n1 (centres undefined) | Not met
Cc1ccc(NC(=S)NNC(=S)Nc2ccc(C)cc2)cc1 | Met
O=C1[C@H]2Cc3c([nH]c4ccccc34)[C@@H](c3c(Cl)cccc3Cl)N2C(=O)CN1C1CCN(CC2CCCCC2)CC1 | Met
NS(=O)(=O)c1ccc(Nc2nc(N/N=C/c3c[nH]c4ccccc34)nc(Nc3ccccc3)n2)cc1 | Not met
O=C(CCn1c[n+](CC(=O)c2ccc(-c3ccccc3)cc2)c2ccccc21)Nc1cccc2cccnc12 | Met
CC(=O)O[C@@H]1C(=O)N(c2cnccn2)[C@H]1c1ccccc1[N+](=O)[O-] | Not met
CN1CCN(c2nc(-c3csc(-c4ccccc4)n3)cc3ccccc23)CC1 | Not met
C=CC(=O)N1CC=C(c2cc3c(N[C@H](C)c4ccccc4)ncnc3[nH]2)CC1 | Not met
CN1CCN(Cc2ccc(NC(=O)c3cncc(C#Cc4cnc5ccc(NCCCO)nn45)c3)cc2C(F)(F)F)CC1 | Not met
CCOc1ccc(C(=O)Nc2ncc(Cc3ccc(F)cc3)s2)cc1 | Not met
CCOC(=O)c1c(N)c(C#N)cn1-c1cc(OC)c(OC)c(OC)c1 | Met
CCO/C=N/C1=C(C#N)C(c2ccc(F)cc2)c2sc3c(C)cccc3c2O1 (centres undefined) | Not met

----------
tested on: RPMI-8226 leukemia; assay: NCI-60 one-dose screen, 48 h; conditions: 10 µM unless noted
This is part of a sample that, as a whole, favours compounds with a hit. Of some 83,000 tested, about 20% had one in any assay. Calls of active or inactive are those of the source. Rule for the calls: active = growth percent below 10; inactive = the rest.
Outcomes: active, inactive

molecule | cat
C=CC(=O)N1CC=C(c2cc3c(N[C@H](C)c4ccccc4)ncnc3[nH]2)CC1 | inactive
Cc1ccc(NC(=O)N[C@@H](Cc2cc(F)cc(F)c2)C(=O)NC2C(=O)N3C[C@H](O)C[C@H]3C(=O)N3CCCC[C@H]3C(=O)N[C@@H](CO)C(=O)N3C[C@H](C)C[C@H]3C(=O)O[C@H]2C)c(F)c1 (some centres undefined) | inactive
C[C@@H](Nc1ncnc2ccc(-c3cnc(Cl)c(NS(C)(=O)=O)c3)cc12)c1ccccc1 | inactive
COCCNc1ccc2ncc(C#Cc3cncc(C(=O)Nc4ccc(CN5CCN(C)CC5)c(C(F)(F)F)c4)c3)n2n1 | active
N/C(=N\C(N)=N\c1nc2ccccc2s1)c1cccc(F)c1 | inactive
COc1ccc(/C=C/C(=O)c2cccc(NC(=O)CSc3nc4ccccc4c(=O)n3-c3ccccc3)c2)cc1OC | inactive
CC(=O)N1N=C(c2cccc(-n3cccc3)c2)CC1c1cccc(F)c1 (centres undefined) | inactive
COc1ccc(NC(=O)CSc2nnc(-c3ccc4nc(-c5ccccc5)[nH]c4c3)o2)cc1 | inactive
CC(=O)c1cc(C(=O)N2c3ccccc3Sc3ccccc32)n2ccc3ccccc3c12 | inactive

----------
test system: NCI-H522 lung; assay: NCI-60 one-dose screen, 48 h; settings: 10 µM unless noted
This is part of a sample that, as a whole, favours compounds with a hit. Of some 83,000 tested, about 20% had one in any assay. Calls of active or inactive are those of the source. Rule for the calls: active = growth percent below 10; inactive = the rest.
Outcomes: active, inactive

molecule | cat
NS(=O)(=O)c1ccc(Nc2cc(-c3ccccc3)nc(SCC(=O)c3ccccc3)n2)cc1 | inactive
N#Cc1cccc(/C(N)=N/C(N)=N/c2nc3ccccc3s2)c1 | active
N#Cc1cccc(CN2CCc3ncn(Cc4ccc(Cl)cc4)c(=O)c3C2)c1 | inactive
CCNC(=O)N1CCc2cc(OC)c(OCCc3ccc(OC)cc3)cc2C1c1ccc([N+](=O)[O-])cc1C (stereo not given) | active
Clc1nc2ccccc2nc1-c1nnc(C2CCCCC2)o1 | inactive
N#Cc1cn(Cc2ccc(Cl)cc2Cl)c(C(=O)c2ccc(Br)cc2)c1N | inactive
CCN(CC)c1ccc2c(c1)Oc1nc(N)c(C#N)c(N)c1C2Sc1ccc(F)cc1 (stereo not given) | active
COc1ccc2c(c1)c(CC(=O)[Se]CC#N)c(C)n2C(=O)c1ccc(Cl)cc1 | active
CC(C)(C)c1ccc(C(=O)Nc2sc3c(c2C(N)=O)CCC(O)C3)cc1 (stereo not given) | inactive
O=C(CSc1nnc(-c2ccc(Cl)cc2)n1-c1ccccc1)Nc1cccc(Cl)c1 | inactive

----------
Measured growth of individual entries
test system: SF-295 CNS; assay: NCI-60 one-dose screen, 48 h (100 = growth as untreated, 0 = no growth, -100 = all killed); details: 10 µM unless noted
The panel holds about 83,000 compounds, 20% with a hit somewhere; the sample as a whole holds those more often.

molecule | tgt | growth [%]
CN(C)C(=O)c1cc(-c2ccc3ncnc(NCc4ccccc4)c3c2)cnc1N | SF-295 CNS | 91.7
C#Cc1ccc(C(=O)NCc2ccc(/C=C/C(=O)c3nccn3C)cc2)cc1 | SF-295 CNS | 20.7
N#Cc1cccc(CN2CCC3=C(C2)C(=O)N(Cc2ccc(Cl)cc2)C2=NCCCN23)c1 | SF-295 CNS | 7.29
C=C(C)[C@@H]1CC[C@]2(COP(=O)(OCC)OCC)CC[C@]3(C)[C@H](CC[C@@H]4[C@@]5(C)CCCNC(C)(C)[C@@H]5CC[C@]43C)[C@@H]12 | SF-295 CNS | 19.8
NC(=O)c1cccc(C#CCNC[C@H]2C[C@@H](n3ccc4c(Cl)ncnc43)[C@H](O)[C@@H]2O)c1 | SF-295 CNS | 105
CCOP(=O)(OCC)OC[C@]12CCC(C)(C)C=C1[C@H]1CC[C@@H]3[C@@]4(C)CC[C@H](OP(=O)(OCC)OCC)C(C)(C)[C@@H]4CC[C@@]3(C)[C@]1(C)CC2 | SF-295 CNS | -66.2
Cc1cc(S(=O)(=O)N(C)C)cc(NCC(=O)NC(=O)NCC(C)C)c1C | SF-295 CNS | 100
CCn1c2ccccc2c2cc(-n3nncc3-c3ccccc3)ccc21 | SF-295 CNS | 15.7
COC[C@]12CCC(C)(C)C[C@H]1C1=CC[C@@H]3[C@@]4(C)CCCNC(C)(C)[C@@H]4CC[C@@]3(C)[C@]1(C)CC2 | SF-295 CNS | -89
COc1ccccc1C(=O)Nc1cccc2c1C(=O)C(=O)C=C2 | SF-295 CNS | 98.8
CCNC(=O)Oc1ccc(/C(=C(/C)c2ccccc2)c2ccc(OCCN3CCCCCC3)cc2)cc1 | SF-295 CNS | -1.08
COC(=O)c1[nH]nc2c1C1(C(=O)N(C)c3ccccc31)C(C#N)=C(N)O2 (configuration not stated) | SF-295 CNS | 118
CC1=N[C@@H]2CN(C(=O)OC(C)(C)C)C[C@@H]2n2c1cc1ccccc1c2=O | SF-295 CNS | 108
O=C(CSc1nc2ccccc2c(=O)n1-c1ccccc1)Nc1ccc(-c2nc3ccc([N+](=O)[O-])cc3[nH]2)cc1 | SF-295 CNS | 103
CC(=O)N1C(=S)NC(=O)C1CC(C)C (configuration not stated) | SF-295 CNS | 102
COc1cc2nc(Cl)nc(Nc3cccc(C4=Nc5c(N)nc(N)nc5NC(c5ccc(Br)cc5)C4)c3)c2cc1OC (configuration not stated) | SF-295 CNS | 32
CC(C)(O)c1cncc(-c2ccc3ncnc(NCc4ccccc4)c3c2)c1 | SF-295 CNS | 85
COc1cc(/C=C2\C(=O)Nc3ccccc32)ccc1OCc1ccc(Cl)cc1 | SF-295 CNS | 103
Cn1cc(-c2nnc(N)nc2-c2c[nH]c3ccc(F)cc23)c2cc(F)ccc21 | SF-295 CNS | 59.4
COc1ccccc1N1CCN(C2=CC(=O)C(C)=C(C)C2=O)CC1 | SF-295 CNS | 103
Cc1cc2nc(C(Cl)Cl)nc(-c3cccs3)n2n1 | SF-295 CNS | -9.21
CNCc1cccc2c1OCCCCCCC(C)(O)CC(C)(C)S(=O)(=O)c1ccc(cc1)-c1cnc(N)c(n1)C(=O)N2 (configuration not stated) | SF-295 CNS | 10.9
CCOc1ccccc1NC1=C(Cl)C(=O)c2nc(C)ccc2C1=O | SF-295 CNS | 90.7
Oc1cccc2ccc(-c3nnc(SCc4ccc(O)c5ncccc45)n3-c3ccccc3)nc12 | SF-295 CNS | 2.95
O=S(=O)(NC1c2ccccc2C[C@H]1O)c1ccc(Cl)cc1Cl (some centres not stated) | SF-295 CNS | 108
COc1cc(OC)c(S(N)(=O)=O)cc1C(=O)/C=C/c1ccc(C)cc1 | SF-295 CNS | 23.6
CCNC(=O)N1CCc2cc(OC)c(OCCc3ccc(OC)cc3)cc2C1c1ccc(Cl)cc1C (configuration not stated) | SF-295 CNS | 13.3
C#CC(=O)N(c1ccc(OC)cc1OC)C(C(=O)NCC(=O)OCC)c1cccs1 (configuration not stated) | SF-295 CNS | -67.9
C=C(C)[C@@H]1CC[C@]2(COC)CC[C@]3(C)[C@H](CC[C@@H]4[C@@]5(C)CCCNC(C)(C)[C@@H]5CC[C@]43C)[C@@H]12 | SF-295 CNS | 58.3
C#C[C@]1(O)CC[C@H]2[C@@H]3CC=C4c5sc(-c6cccc(O)c6)nc5CC[C@]4(C)[C@H]3CC[C@@]21C | SF-295 CNS | -64.7
C=CCn1c(SCC(=O)Nc2ccc(C(=O)/C=C/c3ccc(Br)cc3)cc2)nnc1-c1c[nH]c2ccccc12 | SF-295 CNS | 90.2
CCCC(=O)NC(c1cccnc1)c1cc(C(C)(C)C)c2cccnc2c1O (configuration not stated) | SF-295 CNS | 17
NC(=O)c1cccc(-n2ccc3cc(NC(=O)Nc4ccc(N5CCOCC5)c(C(F)(F)F)c4)ccc32)n1 | SF-295 CNS | -45.7
COc1ccc(C(=O)Nc2ncc(Cc3ccccc3Cl)s2)cc1 | SF-295 CNS | 7.7
CC(C)(C)c1ccc(C(=O)Nc2nc3ccc(O)cc3s2)cc1 | SF-295 CNS | 3.43
Nc1nc(-c2cccc([N+](=O)[O-])c2)c(N=Nc2ccccc2)s1 | SF-295 CNS | 63
CCCCCCCn1cc2c(N[C@H](C)c3ccccc3)ncnc2n1 | SF-295 CNS | 94.5
